# System: OVCAR-4 ovarian
# Method: NCI-60 one-dose screen, 48 h (100 = growth as untreated, 0 = no growth, -100 = all killed)
# Condition Label: 10 µM unless noted
# Description: Growth inhibition of the OVCAR-4 human tumor cell line is measured as a screen for anti-cancer activity. Cells are grown in 96 well plates and exposed to the test compound for 48 hours. Compounds are tested at a single concentration, which is 10^-5 M for most compounds. The reported endpoint is percent growth (GI% or GIPRCNT), where numbers from 0 - 100% represent growth inhibition, and numbers from -100% - 0 represent cell death. For example, a value of 40 represents 60% growth inhibition. […]
This is part of a sample that, as a whole, favours compounds with a hit. Of some 83,000 tested, about 20% had one in any assay. Activity calls are given as the source filed them. Rule for the calls: active = growth percent below 10; inactive = the rest.

[
  {
    "Molecule": "Cc1cc2nc3c4cc([N+](=O)[O-])cc([N+](=O)[O-])c4n(CCN(C)C)c3nc2cc1C",
    "growth": "90.8% (inactive)"
  },
  {
    "Molecule": "NC1=C(C/C(N)=N\\O)C(c2ccccc2Cl)c2c(ccc3ccccc23)O1 (stereo not given)",
    "growth": "110% (inactive)"
  },
  {
    "Molecule": "Cc1cccc(C)c1NCc1nc(-c2ccccc2)n[nH]1",
    "growth": "102% (inactive)"
  },
  {
    "Molecule": "COCCNC1=C(Cl)C(=O)c2ccccc2C1=O",
    "growth": "93.6% (inactive)"
  },
  {
    "Molecule": "COc1cc2ncnc(Nc3ccc(Oc4ccnc(C)c4)c(C)c3)c2cc1NC(=O)CC1CCSS1 (stereo not given)",
    "growth": "6.57% (active)"
  },
  {
    "Molecule": "COc1ccc2c(c1)c(-c1nc(-c3cn(C)c4ncccc34)cs1)cn2CCCN1CCCCC1",
    "growth": "74.7% (inactive)"
  },
  {
    "Molecule": "Cn1nc(-c2ccccc2)c2c(-c3ccccc3)onc2c1=O",
    "growth": "72.1% (inactive)"
  },
  {
    "Molecule": "N#CC1=C(N)Oc2c(c(N)nn2-c2ccccc2)C1c1ccc(Cl)cc1Cl (stereo not given)",
    "growth": "95.7% (inactive)"
  },
  {
    "Molecule": "COc1cc(C(=O)/C=C/c2cc(-c3ccc4c(c3)OCO4)n[nH]2)cc(OC)c1OC",
    "growth": "27.7% (inactive)"
  },
  {
    "Molecule": "COc1cccc(-c2nn(-c3ccccc3)cc2-c2ccnc(NCCCNS(=O)(=O)c3ccc(Cl)cc3)c2)c1",
    "growth": "42.8% (inactive)"
  }
]

----------
# Test system: SNB-75 CNS
# Method: NCI-60 one-dose screen, 48 h (100 = growth as untreated, 0 = no growth, -100 = all killed)
# Condition Label: 10 µM unless noted
About 83,000 compounds went through this panel and 20% of them were active in at least one assay; those are over-represented in the sample as a whole.

[
  {
    "Molecule": "Cc1cc(Cl)nc(N(CCNc2ccnc3cc(Cl)ccc23)Cc2ccco2)n1",
    "growth, %": 81.5
  },
  {
    "Molecule": "Cc1ccccc1-c1nc(C(Cl)Cl)nc2cc(-c3ccccc3)nn12",
    "growth, %": 8.7
  },
  {
    "Molecule": "COc1cnc2c(c1)C(=O)c1c-2n(CCCNC2=NCCS2)c(=O)c2cc([N+](=O)[O-])ccc12",
    "growth, %": 23.7
  },
  {
    "Molecule": "COc1cccc(-c2nn(-c3ccccc3)cc2-c2ccnc(NCCNS(=O)(=O)c3cccc(F)c3)c2)c1",
    "growth, %": 70.6
  },
  {
    "Molecule": "Cc1nn(-c2ccc(Br)cc2)c2nc3[nH]c(=O)[nH]c(=O)c3nc12",
    "growth, %": 74.6
  },
  {
    "Molecule": "COc1ccc(-n2c(/C=C/c3ccc(O)c(OC)c3)cc(/C=C/c3ccc(O)c(OC)c3)nc2=O)cc1",
    "growth, %": 54.5
  },
  {
    "Molecule": "COc1ccc(NC(=O)c2ccoc2COc2ccccc2)cc1",
    "growth, %": 87.2
  },
  {
    "Molecule": "CC(=O)Oc1ccccc1C(=O)/C=C/c1cccc([N+](=O)[O-])c1",
    "growth, %": 60.2
  },
  {
    "Molecule": "Cc1ccc(Sc2sc(-c3ccccc3)nc2[P+](c2ccccc2)(c2ccccc2)c2ccccc2)cc1",
    "growth, %": -3.74
  },
  {
    "Molecule": "O=c1c2sc3ncc(Br)cc3c2ncn1-c1cccc(Cl)c1",
    "growth, %": 16.4
  },
  {
    "Molecule": "Nc1c2c(nc3ccc(Cl)cc13)CC(c1ccc(O)cc1)CC2=O (centres undefined)",
    "growth, %": 30.5
  },
  {
    "Molecule": "COc1ccc(/C=C2\\N=C(c3ccccc3)N(c3cc(OC)c(OC)cc3C(=O)N3N=C(C)CC3=O)C2=O)cc1",
    "growth, %": 87.6
  },
  {
    "Molecule": "COc1cc(/C=N/NC(=S)NNC(=S)NC2CCCCC2)cc(OC)c1OC",
    "growth, %": 91.5
  },
  {
    "Molecule": "Cn1cc(-c2csc(-c3cn(CCN)c4ccc(Br)cc34)n2)c2cccnc21",
    "growth, %": 73.4
  },
  {
    "Molecule": "COC(=O)[C@@H]1[C@H]2C[C@H]3c4[nH]c5cc(OC)ccc5c4CCN3C[C@@H]2C[C@H](OC(=O)/C=C/c2ccnc(OC)c2)[C@H]1OC",
    "growth, %": 53.5
  },
  {
    "Molecule": "Cc1ccc2oc(=O)cc(-c3sc(N4CCCCC4)nc3-c3ccccc3)c2c1",
    "growth, %": 78.1
  },
  {
    "Molecule": "NC1(N)C=CC2=C(C=C1)C1(N)C3=C(C=CC(N)(N)C=C3)N2C2(N)C3=C(C=CC(N)(N)C=C3)N1C1=C2C=CC(N)(N)C=C1",
    "growth, %": 93.9
  },
  {
    "Molecule": "Cn1cc(-c2nc(-c3c[nH]c4ncccc34)cs2)c2cc(Cl)ccc21",
    "growth, %": 63.6
  },
  {
    "Molecule": "O=C(/C=C/c1cccc2ccccc12)Nc1ncc(Cc2ccccc2)s1",
    "growth, %": -17.2
  }
]

----------
# Tested on: SK-MEL-2 melanoma
# Method: NCI-60 one-dose screen, 48 h (100 = growth as untreated, 0 = no growth, -100 = all killed)
# Condition Label: 10 µM unless noted
This is part of a sample that, as a whole, favours compounds with a hit. Of some 83,000 tested, about 20% had one in any assay.

[
  {
    "Compound": "C=C(C)[C@@H]1CC[C@]2(CN)CC[C@]3(C)[C@H](CC[C@@H]4[C@@]5(C)CCC(=O)NC(C)(C)[C@@H]5CC[C@]43C)[C@@H]12",
    "growth (%)": 98.8
  },
  {
    "Compound": "CCN1CCN(C(=O)[C@@]2(C)CC[C@]3(C)CC[C@]4(C)C(=CC(=O)[C@@H]5[C@@]6(C)CC[C@H](OC7C[C@@H](O)[C@@H](O)C(C)O7)C(C)(C)[C@@H]6CC[C@]54C)[C@@H]3C2)CC1 (stereo partly drawn)",
    "growth (%)": 105
  },
  {
    "Compound": "CC1(C)CC[C@]2(C(=O)Nc3ccccn3)CC[C@]3(C)C(=CC[C@@H]4[C@@]5(C)C/C(=C/c6ccncc6)C(=O)C(C)(C)[C@@H]5CC[C@]43C)[C@@H]2C1",
    "growth (%)": 63.3
  },
  {
    "Compound": "N#CC1=C(N)Oc2c(c(N)nn2-c2ccccc2)C1c1ccc(Cl)cc1Cl (stereo not drawn)",
    "growth (%)": 101
  },
  {
    "Compound": "COc1cc(/C=N/NC(=S)NNC(=S)NC2CCCCC2)cc(OC)c1OC",
    "growth (%)": 108
  },
  {
    "Compound": "Cc1cc(N2CCCCC2)nc(N(CCNc2ccnc3cc(Cl)ccc23)Cc2ccco2)n1",
    "growth (%)": 76.4
  },
  {
    "Compound": "Cn1cccc1/C=C1/SC(=S)N(CCc2ccc(O)cc2)C1=O",
    "growth (%)": 64.7
  },
  {
    "Compound": "Cc1cccc(C)c1NC(=O)CSC(=S)N1CCN(CCOCCO)CC1",
    "growth (%)": 95
  },
  {
    "Compound": "COc1cccc(-c2nn(-c3ccccc3)cc2-c2ccnc(NCCNS(=O)(=O)c3ccc(Cl)cc3)c2)c1",
    "growth (%)": 13.4
  },
  {
    "Compound": "Cn1c(=O)c2c(ncn2CCC(=O)Nc2ccc(F)cc2)n(C)c1=O",
    "growth (%)": 104
  },
  {
    "Compound": "O=C1c2cc3c(cc2-c2c1c1ccc(F)cc1c(=O)n2CCCN1CCOCC1)OCO3",
    "growth (%)": 82.1
  },
  {
    "Compound": "Cc1cc2nc3c4cc(N)ccc4n(CCN(C)C)c3nc2cc1C",
    "growth (%)": 17.6
  },
  {
    "Compound": "Cc1cc(N2CCCC2)nc(N(CCNc2ccnc3cc(Cl)ccc23)Cc2ccco2)n1",
    "growth (%)": 77.1
  },
  {
    "Compound": "C#CCN=C[C@]12CC[C@@H](C(=C)C)[C@@H]1[C@H]1CC[C@@H]3[C@@]4(C)CCC(=O)C(C)(C)[C@@H]4CC[C@@]3(C)[C@]1(C)CC2",
    "growth (%)": 91.7
  },
  {
    "Compound": "Cn1cc(-c2csc(-c3cn(CCN)c4ccc(Br)cc34)n2)c2cccnc21",
    "growth (%)": 110
  },
  {
    "Compound": "COc1ccc2nc(-c3c(-c4ccccc4)nc4ncccn34)[nH]c2c1",
    "growth (%)": 113
  },
  {
    "Compound": "O=C(NO)c1ccc(Cn2c(=O)n(-c3ccccc3)c(=O)c3ccccc32)cc1",
    "growth (%)": 5.92
  },
  {
    "Compound": "C/C(=N/NC(N)=S)C(=O)O",
    "growth (%)": 118
  }
]
